# assayed_target: CB1 receptor (Homo sapiens)
# Construct: host or cells: cell membrane preparations
# Sequence (P21554 whole entry): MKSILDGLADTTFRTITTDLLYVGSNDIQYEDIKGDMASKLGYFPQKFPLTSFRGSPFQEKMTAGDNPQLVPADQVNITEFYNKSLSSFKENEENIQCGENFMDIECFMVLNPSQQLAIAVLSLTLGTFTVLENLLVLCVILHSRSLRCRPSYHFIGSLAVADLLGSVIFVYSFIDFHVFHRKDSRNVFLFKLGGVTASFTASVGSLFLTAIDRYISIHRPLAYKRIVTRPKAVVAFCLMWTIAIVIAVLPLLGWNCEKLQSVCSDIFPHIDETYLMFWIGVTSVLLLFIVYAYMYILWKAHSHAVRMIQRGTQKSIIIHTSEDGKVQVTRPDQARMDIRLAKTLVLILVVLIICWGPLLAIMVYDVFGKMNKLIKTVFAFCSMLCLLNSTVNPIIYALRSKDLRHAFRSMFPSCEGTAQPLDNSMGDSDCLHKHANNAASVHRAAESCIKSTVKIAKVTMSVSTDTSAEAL
# test_method_notes: [3H]CP-55,940 radioligand competition binding, CB1
# study_conditions: [3H]CP-55,940 displacement; read-out: Ki (CB1)
pKi: −log10 of the molar value.
For each entry below, report its pKi value.

q: What measured pKi goes with "CCN(CC)c1ccc(CN(c2ccc(Cl)cc2)S(=O)(=O)c2ccc(OC)cc2)cc1" ?
a: < 4.70

q: What measured pKi goes with "O=C(Cc1ccccc1)NC(CCc1ccccc1)NC(=O)Cc1ccccc1" ?
a: < 4.70

q: What measured pKi goes with CCN(CC)c1ccc(C(NC(=O)C=Cc2ccccc2)NC(=O)C=Cc2ccccc2)cc1 (stereo not drawn) ?
a: < 4.70
